Procedure text: qHTS for Inhibitors of Inflammasome Signaling: IL-1-beta AlphaLISA Primary Screen
Study conditions: THP-1 LPS/ATP IL-1B secretion, 16 h, at 57.5 µM
The whole screen tested about 360,000 compounds, of which about 17,000 (4.7%) were called active. Another 5% or so got no clear call; they are omitted. No stated cut-off is given here; in the data, active means activity change below about -50%; inconclusive means mostly about -30% to -49%; inactive means weaker than that. For the sample, actives were picked, then their nearest neighbours and some compounds at random.
Outcome codes: true (active), false (inactive)

>>> print(df.to_string())
                                    molecule  class_name
 0  CCC1(CC(C)c2ccccc2)C(=O)NC(=O)NC1=O (stereo unspecified)       false
 1  C[C@H]1CN([C@@H](C)CO)C(=O)CCCn2nncc2CO[C@H]1CN(C)C(=O)Oc1ccccc1       false
 2  CC(C)(C)[C@]1(O)C[C@@H]2OC(=O)C[C@@]23C(=O)O[C@@H]2OC(=O)[C@H](O)[C@]213       false
 3  CCNc1nc2[nH]c(=O)c3c(c2s1)OC(N)=C(C#N)C3c1cccs1 (stereo unspecified)        true
 4  CC(CC(C#N)(c1ccccc1)c1ccccc1)N1CCCCC1 (stereo unspecified)       false
 5  O=C(C1CC(=O)N(C2CCCC2)C1)N1CCC2(CC1)OCCO2 (stereo unspecified)       false
 6        COc1ccc(CNCCc2c[nH]c3ccccc23)cc1OC       false
 7      O=c1c2ccccc2nc(-c2ccccc2)n1-c1ccccn1       false
 8            COc1ccc(Br)cc1CNCCc1cccc(Cl)c1        true
 9  CC1(C)Cc2c(C#N)c(N3CCNCC3)nc(-c3ccco3)c2CS1        true
10  O=C(NC1CCCCC1)N1Cc2cc(N3CCCCC3)ccc2-n2nncc2C1       false
